Tested on: UACC-62 melanoma
Test: NCI-60 one-dose screen, 48 h (100 = growth as untreated, 0 = no growth, -100 = all killed)
Settings: 10 µM unless noted
About 83,000 compounds went through this panel and 20% of them were active in at least one assay; those are over-represented in the sample as a whole.
In plain terms, low growth, meaning strictly below 50%, gives True, and everything else gives False.

# compound, groupLabel
rows = [
    ("CCOC(=O)c1c(NC(=O)c2cccc(C(F)(F)F)c2)sc2c(CN3CCN(C)CC3)c(O)ccc12", "True"),
    ("COc1ccc(C2CC(c3ccc(Nc4nc(NCCO)nc(Nc5ccc(Cl)cc5)n4)cc3)=Nc3c(N)nc(N)nc3N2)cc1 (stereo not drawn)", "False"),
    ("COc1cc2c3c(n(CCCN4CCCCC4)c(=O)c2cc1OC)-c1cc2c(cc1C3=O)OCO2", "False"),
    ("COc1cc2c3c(n(CCCNC4CCCCC4)c(=O)c2cc1OC)-c1cc2c(cc1C3=O)OCO2", "False"),
    ("CC(=O)Nc1ccc(C)c(Nc2cc(-c3ccc(-n4cccn4)cc3)[nH]n2)c1", "True"),
    ("CC(=O)Nc1ccc(NC(=O)Nc2cccc(-c3nc(-c4ccc(NC(=O)c5cccs5)cc4Cl)no3)c2)cc1C(F)(F)F", "True"),
    ("C#CCOc1ccc(C(Nc2ccc(Cl)cc2)c2nnnn2C2CCCCC2)cc1 (stereo not drawn)", "False"),
    ("COc1cc(C(=O)c2cc(C(C)=O)c3c4ccccc4ccn23)cc(OC)c1OC", "True"),
    ("Fc1ccc(-c2cc3nc(C(Cl)Cl)nc(-c4cccs4)n3n2)cc1", "True"),
    ("O=C(CSc1nnc(-c2ccc(Cl)cc2)n1-c1ccccc1)Nc1ccc(F)cc1", "False"),
    ("C=CCn1c(SCC(=O)Nc2cccc(C(=O)/C=C/c3cccc([N+](=O)[O-])c3)c2)nc2ccccc2c1=O", "False"),
    ("Cc1cn(-c2cc(NC(=O)c3cncc(C#Cc4cnc5ccc(O[C@H]6CCOC6)nn45)c3)cc(C(F)(F)F)c2)cn1", "False"),
    ("C=C(C)C(=O)O[C@H]1C[C@@]2(C)OC(=CC2=O)[C@H](C)[C@H](O)[C@H]2OC(=O)C(=C)[C@@H]21", "False"),
    ("CCN1C(=O)N(CC)C2SC(N/N=C/C=C/c3ccccc3OC)=NC21 (stereo not drawn)", "True"),
    ("CCCC(=O)NC(c1cccnc1)c1cc(C(C)=O)c2cccnc2c1O (stereo not drawn)", "True"),
    ("CS(=O)c1nccc(-c2c(-c3ccc(F)c(OCc4ccc(F)cc4)c3)nc3sccn23)n1 (stereo not drawn)", "False"),
    ("COc1ccc2c(ccn2C(=O)N2c3ccccc3Sc3ccccc32)c1", "True"),
]

* * *

Tested on: SF-268 CNS
Test: NCI-60 one-dose screen, 48 h (100 = growth as untreated, 0 = no growth, -100 = all killed)
Settings: 10 µM unless noted
Compounds without any hit were thinned out: in the full panel of roughly 83,000, 20% have a hit.
Please note: y applies when growth is 80% or greater, and n applies otherwise.

# molecule, systemTested, groupLabel
data = [
    ("C=CCn1c(SCC(=O)Nc2cccc(C(=O)/C=C/c3ccc(C)cc3)c2)nc2ccccc2c1=O", "SF-268 CNS", "y"),
    ("O=C(Nc1ccccc1)Nc1nc2ccc([N+](=O)[O-])cc2s1", "SF-268 CNS", "n"),
    ("C/C(=C(/c1ccc(O)cc1)c1ccc(OCCN2CCCC2)cc1)c1ccc(Cl)cc1", "SF-268 CNS", "n"),
    ("CN1CCN(Cc2ccc(NC(=O)c3cncc(C#Cc4cnc5ccc(NC6CCOCC6)nn45)c3)cc2C(F)(F)F)CC1", "SF-268 CNS", "n"),
    ("COc1ccc(-c2ccnc3c(C#N)c(Nc4ccccc4)nn23)cc1OC", "SF-268 CNS", "y"),
    ("COc1ccc(N)cc1C(=O)Nc1cccc(-c2cc(=O)c3c(OC)c(OC)c(OC)cc3o2)c1", "SF-268 CNS", "n"),
    ("CS(=O)(=O)c1ccc2c(c1)c1c(n2C(=O)c2ccc(Cl)cc2)CCCC1", "SF-268 CNS", "n"),
    ("CN1CCN(c2ccc3c(c2)nc(NNC(=O)c2ccncn2)c2cccn23)CC1", "SF-268 CNS", "n"),
    ("CS(=O)(=O)c1nccc(-c2c(-c3ccc(F)c(OCc4ccccc4)c3)nc3sccn23)n1", "SF-268 CNS", "y"),
    ("Clc1ccccc1/C=C/c1nn2c(-c3ccncc3)nnc2s1", "SF-268 CNS", "y"),
    ("C/C(Cc1ccc(Cl)cc1)=C(/c1ccccc1)c1ccc(OCCN)cc1", "SF-268 CNS", "y"),
    ("C#CCOc1ccc(C(Nc2ccc(OC)cc2)c2nnnn2C2CCCCC2)cc1 (stereo not given)", "SF-268 CNS", "y"),
    ("C#C[C@]1(O)CC[C@H]2[C@@H]3CC=C4c5sc(-c6ccccn6)nc5CC[C@]4(C)[C@H]3CC[C@@]21C", "SF-268 CNS", "y"),
    ("O=C1CC2(CCOCC2)Oc2ncccc21", "SF-268 CNS", "n"),
    ("COc1c([C@@H](CC(C)C)OC(C)=O)ccc2c1C(=O)OCc1cc(C)cc(O)c1O2", "SF-268 CNS", "n"),
    ("CCCCCCNC(=O)Oc1ccc(/C(=C(/C)c2ccc(Cl)cc2)c2ccc(OCCN3CCCC3)cc2)cc1", "SF-268 CNS", "n"),
    ("NNC(=O)c1sc2nc(-c3cnccn3)cc(-c3cccs3)c2c1N", "SF-268 CNS", "y"),
    ("C=C(C)C(=O)O[C@H]1C[C@@]2(C)OC(=CC2=O)/C(C)=C\\[C@H]2OC(=O)C(=C)[C@H]12", "SF-268 CNS", "n"),
    ("CC(=O)Nc1ccc(C)c(Nc2cc(-c3ccc(-n4cccn4)cc3)[nH]n2)c1", "SF-268 CNS", "n"),
    ("COc1cc2cc(Oc3ccc(NC(=O)Nc4cc(C(F)(F)F)cc(C(F)(F)F)c4)cc3)c(C)nc2cc1OCCN(C)C", "SF-268 CNS", "y"),
]

* * *

Tested on: SF-539 CNS
Assay: NCI-60 one-dose screen, 48 h (100 = growth as untreated, 0 = no growth, -100 = all killed)
Conditions: 10 µM unless noted
This is part of a sample that, as a whole, favours compounds with a hit. Of some 83,000 tested, about 20% had one in any assay.
Entries and their growth values follow.
outcomeMeasure: growth (%)

# compound, outcomeMeasure, reported
measured = [
    ("COC[C@@]1(C)CC[C@]2(C)CC[C@]3(C)C(=CC[C@@H]4[C@@]5(C)CCCNC(C)(C)[C@@H]5CC[C@]43C)C2C1 (stereo partly drawn)", "growth", 62.7),
    ("C/C(=N/Nc1nc(N/N=C(/C)c2ccc([N+](=O)[O-])cc2)nc(N2CCOCC2)n1)c1ccc([N+](=O)[O-])cc1", "growth", 15.5),
    ("CCN1C(=O)N(CC)C2SC(N/N=C/c3ccccc3F)=NC21 (stereo not drawn)", "growth", -16.7),
    ("CC[C@]12C=CCN3CC[C@]4(C(=C(C(=O)OC)C1)Nc1cc5c(cc14)[C@@H]1[C@H](O5)[C@@H](O)[C@@]4(CC)CC(C(=O)OC)=C5Nc6cc(OC)ccc6[C@@]56CCN1[C@@H]46)[C@@H]32", "growth", -4.82),
    ("C=C(C)C(=O)O[C@H]1C[C@@]2(C)OC(=CC2=O)/C(CO)=C\\[C@H]2OC(=O)C(=C)[C@H]12", "growth", -82.9),
    ("C/C(=C(/c1ccc(O)cc1)c1ccc(OCCN2CCCCCC2)cc1)c1ccccc1", "growth", 10.7),
    ("C=CCn1c(SCC(=O)Nc2cccc(C(=O)/C=C/c3ccc(C)cc3)c2)nc2ccccc2c1=O", "growth", 89.4),
    ("CCOC(=O)C1=C(C)Nc2nc3ccccc3n2C1c1ccccc1 (stereo not drawn)", "growth", 96.9),
    ("CCOc1ccc2nc(NC(=O)Nc3ccccc3C)sc2c1", "growth", 57.1),
    ("COc1ccc(-c2nc3cc(Cl)c(Cl)cc3n2CC(=O)N=Nc2c(O)[nH]c3ccc(Cl)cc23)cc1", "growth", 36),
    ("Brc1cccc(/C=N/Nc2nc(N/N=C/c3cccc(Br)c3)nc(N3CCOCC3)n2)c1", "growth", 56.4),
    ("Nc1nc(-c2cccc([N+](=O)[O-])c2)c(N=Nc2ccccc2Cl)s1", "growth", 17.8),
    ("CCC(CC)n1c(=O)c(SC2=NC3C(NN2)N(CC)C(=O)N3CC)c(C(=O)O)c2ccccc21 (stereo not drawn)", "growth", 3.93),
    ("CCN(CC)CCN1C(=O)c2c(c3c4cccnc4[nH]c3c3ccc4ccccc4c23)C1=O", "growth", 76.5),
    ("c1ccc(-c2n(Cc3ccc4ccccc4c3)c3c4ccccc4c4ccccc4c3[n+]2Cc2ccc3ccccc3c2)cc1", "growth", -81.8),
    ("O=c1oc2ccc(-c3ccc(F)cc3F)cc2c(=O)n1-c1cccc(C(F)(F)F)c1", "growth", 11.6),
    ("Oc1ccccc1-c1nnc(SCc2ccc(O)c3ncccc23)o1", "growth", 37),
    ("Cc1csc(Nc2cccc(Nc3nc(C)cs3)c2)n1", "growth", 83.8),
]
